remaining at 3 h, 10 uM values by entry
Test: Stability in human plasma (Example 16)
Assay type: in vitro ADME
Details: pooled human plasma; Human plasma 37° C.; peptide 10 uM; 180 min; read-out: % Remaining at Each Time Point: 180 min
Respond with the bare value in %.

// known answers, use as guide
(Q) Return reported remaining at 3 h, 10 uM. Input substance: H-MRWQEMGYIFYPRKLR-OH [compound 2]
(A) 38.4

(Q) Return reported remaining at 3 h, 10 uM. Input substance: H-MRWQEMNYIFYPR-OH [compound 208]
(A) 85.4

Now, please, on to the next substance.
(Q) Return reported remaining at 3 h, 10 uM. Input substance: H-RWQEMNYIFYPR-OH [compound 210]
(A) 95.8

Every entry's value here was drawn from patent US11753445B2.
